Entries and their measured melting point follow.

1) Cc1cc(C#N)cc(C(=O)NC(C)C)c1NC(=O)c1cc(Br)nn1-c1ccccc1Cl | 145 to 149 °C
2) COc1cc(OC)cc(C(O)C(=O)c2ccccc2)c1 (centres undefined) | 98 to 104 °C
3) CCC(=O)NCCc1ccc(OCc2ccccc2)c(OCc2ccccc2)c1CC | 159 to 160 °C

Consider now this further compound.
Enquiry: Provide measured melting point value, entry: COC(=O)[C@@H]1C[C@H](OC(=O)c2cccs2)C(=O)[C@H]2[C@@]1(C)CC[C@H]1C(=O)O[C@H](c3ccoc3)C[C@]21C
Return: 143 to 145 °C
